molecular target: MAGE-A11:PCF11 (Homo sapiens (Human)); assay: TR-FRET single point screening at 15 μM; format: binding; design: unit not given here; conditions: single point TR-FRET screening at 15 μM against MAGE-A11:PCF11
A collection of compounds and their measured TR-FRET signal

Some solved entries appear below for comparison.
Assign TR-FRET signal to the following record: CCc1ccc(CNCCCNc2c3ccc(Cl)cc3nc3ccc(OC)cc23)cc1 [SJ000521005]
−390.4

Assign TR-FRET signal to the following record: Cc1cc(N2CCN(CC(O)CO)CC2)c2ccccc2n1 (stereo not drawn) [SJ000227653]
−4.954

Assign TR-FRET signal to the following record: COc1ccc2nc3cc(Cl)ccc3c(NCCCNCCCSC)c2c1 [SJ000523025]
−336.9

Assign TR-FRET signal to the following record: CCCN(CCCCNc1ccnc2cc(Cl)ccc12)Cc1ccoc1 [SJ000311200]
12.31

Assign TR-FRET signal to the following record: CCOc1ccc2ncc(C(=O)c3ccc(C)cc3)c(N3CCN(CC)CC3)c2c1 [SJ000247284]
−14.25

Next:
Assign TR-FRET signal to the following record: CN(C)c1cc(NC(=O)CN2CCOCC2)c2ccccc2n1 [SJ000111677]
4.988

Assign TR-FRET signal to the following record: CCOc1ccc2ncc(S(=O)(=O)c3ccccc3)c(N3CCN(Cc4ccccc4)CC3)c2c1 [SJ000247249]
−15.91

Assign TR-FRET signal to the following record: COc1ccc2ncc(S(=O)(=O)c3ccc(C)c(C)c3)c(N3CCN(c4ccccc4)CC3)c2c1 [SJ000117051]
−52.48

Assign TR-FRET signal to the following record: CCc1ccc(S(=O)(=O)c2cnc3ccccc3c2N2CCN(Cc3ccccc3)CC2)cc1 [SJ000117086]
−55.26

Assign TR-FRET signal to the following record: CCCN(CCCCNc1ccnc2cc(Cl)ccc12)Cc1sccc1C [SJ000311199]
6.494

Assign TR-FRET signal to the following record: CCCCN(CCCC)CC(=O)Nc1c2c(nc3ccccc13)N(C)CC2 [SJ000331523]
2.503

Assign TR-FRET signal to the following record: CCN1CCN(c2c(S(=O)(=O)c3ccc(C)cc3)cnc3cc(OC)c(OC)cc23)CC1 [SJ000083965]
7.146

Assign TR-FRET signal to the following record: CCCN(CCCNc1c2ccc(Cl)cc2nc2ccc(OC)cc12)Cc1cc(OC)ccc1O [SJ000520933]
−150.8

Assign TR-FRET signal to the following record: FC(F)(F)Oc1cccc(CN(CCCCNc2ccnc3cc(Cl)ccc23)Cc2ccccc2)c1 [SJ000520457]
33.31

Assign TR-FRET signal to the following record: CCCN(CCCNc1c2ccc(Cl)cc2nc2ccc(OC)cc12)CCOCc1ccccc1 [SJ000522981]
−212.4

Assign TR-FRET signal to the following record: Clc1ccc2c(NCCCCN(Cc3ccccc3)Cc3ccc(Br)o3)ccnc2c1 [SJ000312684]
14.96

Assign TR-FRET signal to the following record: CCCN(CCCNc1c2ccc(Cl)cc2nc2ccc(OC)cc12)Cc1ccc(C)s1 [SJ000520927]
−124.8

Assign TR-FRET signal to the following record: CCCN(CCCNc1c2ccc(Cl)cc2nc2ccc(OC)cc12)Cc1ccc(-c2cccc(Cl)c2)o1 [SJ000523020]
−169.7

---

target: MAGE-A11:PCF11 (Homo sapiens (Human), UniProt P43364); assay: TR-FRET single point screening at 15 μM; format: binding; parameters: unit not given here; details: single point TR-FRET screening at 15 μM against MAGE-A11:PCF11
Sequence (P43364 218-429): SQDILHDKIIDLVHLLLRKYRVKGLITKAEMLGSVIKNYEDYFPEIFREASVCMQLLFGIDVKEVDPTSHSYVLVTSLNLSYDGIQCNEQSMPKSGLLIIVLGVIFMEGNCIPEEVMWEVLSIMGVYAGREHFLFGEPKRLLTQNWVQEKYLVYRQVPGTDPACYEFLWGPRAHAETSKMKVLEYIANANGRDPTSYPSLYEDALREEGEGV
assay endpoint: TR-FRET signal
// no unit, no text: just the number

Some solved entries appear below for comparison.
Assign TR-FRET signal to the following record: `Cc1[nH]cnc1CN(CCCCNc1ccnc2cc(Cl)ccc12)Cc1ccccc1`
15.11

Assign TR-FRET signal to the following record: `CCOc1ccc2ncc(S(=O)(=O)c3ccc(OC)cc3)c(N3CCN(CC)CC3)c2c1`
−6.389

Assign TR-FRET signal to the following record: `O=S(=O)(c1ccccc1)c1cnc2ccc(F)cc2c1N1CCN(Cc2ccccc2)CC1`
−62.28

Next:
Assign TR-FRET signal to the following record: `O=C(O)CCCNC(=O)CNc1c2ccccc2nc2ccccc12`
9.598

Assign TR-FRET signal to the following record: `CCCN(CCCNc1c2ccc(Cl)cc2nc2ccc(OC)cc12)CCc1ccccc1`
−591.7

Assign TR-FRET signal to the following record: `FC(F)(F)c1cc(CN(CCCCNc2ccnc3cc(Cl)ccc23)Cc2ccccc2)ccc1Cl`
25.28

Assign TR-FRET signal to the following record: `CCOC(=O)c1cnc2c(CC)cccc2c1NCCN1CCOCC1`
−6.103

Assign TR-FRET signal to the following record: `CCCN(CCCNc1c2ccc(Cl)cc2nc2ccc(OC)cc12)Cc1ccc([N+](=O)[O-])s1`
−154.4

---

A collection of compounds and their measured pIC50
target: interaction between GST-MAGEA11 MHD and FAM-PCF11_4 peptide (MAGE-A11:PCF11) (Homo sapiens (Human)); assay: TR-FRET dose response competition assay for disruption of MAGE-A11:PCF11 binding; conditions: Dose response TR-FRET screening of nine scaffold groups against MAGE-A11:PCF11; read-out: consensus IC50
Sequence (P43364 218-429): as above
Quick note: pIC50 means taking -log10 of the concentration in moles per liter.

Some solved entries appear below for comparison.
Assign pIC50 to the following record: `CC(=O)NC1=C(Cl)C(=O)c2ccccc2C1=O`
4.16

Assign pIC50 to the following record: `CCCn1c(-c2ccc(OC(F)F)cc2)nc2c1c(=O)[nH]c(=O)n2Cc1ccccc1`
4.16

Assign pIC50 to the following record: `N#Cc1ccc(Cc2ccc3c(NCCCNCc4cccc5c4OCO5)ccnc3c2)cc1`
4.18

Assign pIC50 to the following record: COc1ccc(C2Nc3ccccc3C(=O)N2Cc2ccc(C)cc2)cc1 (centres unmarked)
4.16

Assign pIC50 to the following record: `C=CCSc1nc2cc(-c3ccccc3)sc2c(=O)n1CCN1CCOCC1`
4.16

Assign pIC50 to the following record: `COc1ccc(F)cc1CNCCCNc1ccnc2cc(CCC(C)C)ccc12`
4.16

Assign pIC50 to the following record: `O=[N+]([O-])c1ccc(CNCCCNc2ccnc3cc(Cl)ccc23)cc1O`
4.16

Assign pIC50 to the following record: `CC(=O)N(C1=C(Cl)C(=O)c2ccccc2C1=O)c1cccc(O)c1`
4.16

Assign pIC50 to the following record: `CCCn1c(=O)[nH]c(=O)c2c1nc(-c1ccc(F)c(F)c1)n2CCOC`
4.16

Assign pIC50 to the following record: `CC(C)c1ccc(-c2nc3c(=O)n(C)c(=O)n(C)c3[nH]2)cc1`
4.16

Next:
Assign pIC50 to the following record: CCCN1C(=O)c2ccccc2NC1c1ccc(OC)c(COc2ccc([N+](=O)[O-])c(C)c2)c1 (centres unmarked)
4.16

Assign pIC50 to the following record: COc1cc2nc(N(C)CCCNC(=O)C3CCCO3)nc(N)c2cc1OC (centres unmarked)
4.44

Assign pIC50 to the following record: `CCCOc1ccc(-c2nc3c(=O)n(C)c(=O)n(C)c3[nH]2)cc1`
4.16

Assign pIC50 to the following record: `COc1cccc(CNCCCNc2ccnc3cc(Cc4c(Cl)cccc4Cl)ccc23)c1O`
4.86

Assign pIC50 to the following record: `CCn1c2ccccc2c2cc(CN3CCc4nnc(CNS(=O)(=O)C(C)C)n4CC3)ccc21`
4.16

Assign pIC50 to the following record: `COc1ccc(Oc2ccc3c(NCCCNCc4cccc5c4OCO5)ccnc3c2)cc1`
4.36

Assign pIC50 to the following record: `COc1ccc(C2=C(c3ccc([N+](=O)[O-])cc3)C(=O)OC2)cc1`
4.16

---

A collection of compounds and their measured TR-FRET signal
target: UniProt:P43364; assay: TR-FRET single point screening at 15 μM; format: binding; parameters: unit not given here; conditions: single point TR-FRET screening at 15 μM against MAGE-A11:PCF11

Some solved entries appear below for comparison.
Assign TR-FRET signal to the following record: Clc1ccc2c(NC3CCN(Cc4cccc5ccccc45)CC3)ccnc2c1 [SJ000523099]
−6.179

Assign TR-FRET signal to the following record: COc1ccc2ncc(S(=O)(=O)c3ccc(C)cc3)c(N3CCN(Cc4ccccc4)CC3)c2c1 [SJ000117085]
−82.22

Assign TR-FRET signal to the following record: Clc1ccc2c(NCCCCN(Cc3ccccc3)Cc3cccc4ccccc34)ccnc2c1 [SJ000361204]
26.49

Next compound, TR-FRET signal to be filled in.
Assign TR-FRET signal to the following record: COc1ccc2nc3cc(Cl)ccc3c(NCCCNCc3ccc(C)o3)c2c1 [SJ000361089]
−229
